# System: RPMI-8226 leukemia
# Measurement notes: NCI-60 one-dose screen, 48 h
# Condition set: 10 µM unless noted
This is part of a sample that, as a whole, favours compounds with a hit. Of some 83,000 tested, about 20% had one in any assay. The source made the active and inactive calls. How the source made its calls: active means growth percent below 10; inactive means the rest.
Use one of these outcomes when replying: active, inactive

Which outcome was assigned to "COc1ccc(/C=C/C(=O)c2ccc(NC(=O)CSc3nnc(-c4cc(-c5ccccc5)nc5ccccc45)n3-c3ccccc3)cc2)cc1" in this test?
inactive

I'd appreciate the recorded outcome for "O=C1/C(=C/c2cccc([N+](=O)[O-])c2)COc2ccc(O)cc21" from this test.
active

Look up the recorded call for "C[C@H]1[C@H](C)CC[C@]2(C(=O)O)CC[C@]3(C)C(=CC[C@@H]4[C@@]5(C)C[C@@H](Cc6cn([C@@H]7O[C@H](CO)[C@@H](O)[C@H](O)[C@H]7O)nn6)[C@H](O)C(C)(C)[C@@H]5CC[C@]43C)[C@H]12" in this test.
inactive

// param item: CCN(CC)CCCC(C)Nc1ccc2cc(OC)ccc2n1 (configuration not stated) ; yields the recorded call
inactive

Tell me the assay call for "CCn1c2ccc(O)cc2c2c(C)c3c[n+](C(C)C)ccc3c(C)c21" please.
inactive

Can you look up the reported call for "CCOC(=O)c1c(NC(=O)c2ccc(OC)cc2)sc2c(CN(C)C)c(O)ccc12" for me?
inactive

Called result for "C[C@@H]1O[C@@H](O[C@@H]2C[C@H](c3ccc4c(c3O)C(=O)C3=C(C4=O)[C@@]4(O)C(=O)C[C@](C)(O)C[C@@]4(O)C=C3)O[C@H](C)[C@H]2O)C[C@H](O)[C@@H]1O"
inactive
